Published IC50 for Protein kinase C alpha type (Homo sapiens, UniProt P17252), assembled from different documents, is shown next.

Solved cases (3 shown):
> print(dat)
                                smiles.data  observed.property   result
1  Cn1c(CNc2cccc(C(=O)NCc3ccccc3)c2)nnc1-c1ccncc1               IC50  > 10 µM
2  O=C(N[C@@H]1CCC[C@H]1OC(=O)c1cc(O)c(C(=O)c2c(O)cccc2NC(=O)C(F)(F)F)c(O)c1)c1ccc(O)cc1               IC50  > 50 µM
3                 O=C1CN2C(=NN1)COc1ccccc12               IC50  > 50 µM

Fill in the blank: the reported IC50 of `Cc1cnccc1-c1n[nH]c(CNc2cccc(C(=O)NCc3ccccc3)c2)n1` is ____.
> 10 µM

---

Published pIC50 for Protein kinase C alpha type (Homo sapiens, UniProt P17252), assembled from different documents, is shown next.
pIC50: −log10 of the molar value.

> print(dat)
                                   molecule  observed.property  result
1  COC1C(CO)OC(n2c3c(Cl)cccc3c3c4c(c5c6cccc(Cl)c6[nH]c5c32)C(=O)N(NC=O)C4=O)C(O)C1O (stereo not drawn)              pIC50  < 4.00
2        Cc1cccc(Nc2ncnc3[nH]c(C)c(C)c23)c1              pIC50  < 4.00

Now consider the entry below.
Fill in the blank: the reported pIC50 of `CNC(=O)c1cccc(NCc2nc(-c3ccncc3)n[nH]2)c1` is ____.
< 5.00

---

pIC50: −log10 of the molar value.
Published pIC50 for Protein kinase C alpha type (Homo sapiens), assembled from different documents, is shown next.

Solved cases (2 shown):
> print(dat)
                                smiles.data                               system.name  result
1  c1ccc(Oc2cccc(NCc3nc(-c4ccncc4)n[nH]3)c2)cc1  Protein kinase C alpha type (Homo sapiens)  < 5.00
2  O=C(c1ccc(F)c(F)c1Nc1ccc(I)cc1F)N1CC(O)([C@@H]2CCCCN2)C1  Protein kinase C alpha type (Homo sapiens)  < 5.00

Now consider the entry below.
Fill in the blank: the reported pIC50 of `CC(C)c1nnc2ccc(-c3ocnc3-c3ccccc3)cn12` is ____.
< 5.00

---

Published IC50 for Protein kinase C alpha type (Homo sapiens, UniProt P17252), assembled from different documents, is shown next.
Field format: number, assumed nM, no unit text.

Solved cases (5 shown):
> print(dat)
                                   compound                               system.name  observed.property  number
1  CN1CCN(c2nc(C3=C(c4c[nH]c5cccc(Cl)c45)C(=O)NC3=O)c3ccccc3n2)CC1  Protein kinase C alpha type (Homo sapiens, UniProt P17252)               IC50     202
2  CN(C)CCCNC(=O)c1cc(NC(=O)c2cc(NC(=O)Cn3cc(C4=C(c5c[nH]c6ccccc56)C(=O)NC4=O)c4ccccc43)cn2C)cn1C  Protein kinase C alpha type (Homo sapiens, UniProt P17252)               IC50     630
3  CN(C)CCCn1cc(C2=C(c3cccc4ccccc34)C(=O)NC2=O)c2cccnc21  Protein kinase C alpha type (Homo sapiens, UniProt P17252)               IC50    1400
4  CN(C)CCCn1nc(C2=C(c3cn(-c4ccccc4)c4ccccc34)C(=O)NC2=O)c2ccccc21  Protein kinase C alpha type (Homo sapiens, UniProt P17252)               IC50     150
5              O=c1sn(-c2ccccc2)c(=O)n1CCCl  Protein kinase C alpha type (Homo sapiens, UniProt P17252)               IC50    5800

Fill in the blank: the reported IC50 of `CCOC(=O)Cn1sc(=O)n(-c2cccc(C(=O)OCC)c2)c1=O` is ____.
5300

Item: Cn1cc(C2=C(c3cccc(NCC(O)CO)c3)C(=O)NC2=O)c2cc(Cl)ccc21 (racemic)
260

Item: `Cn1cc(C2=C(c3ccccc3Cl)C(=O)NC2=O)c2ccccc21`
760

Item: `O=C1NC(=O)C(c2cn(CCCO)c3ncccc23)=C1c1ccccc1Cl`
4400

Item: `O=C1NC(=O)C(c2cn(CCCO)c3ncccc23)=C1c1ccc(F)cc1Cl`
4500

Item: `CN1CCC(c2c(O)cc(O)c3c2O/C(=C\c2ccc([N+](=O)[O-])cc2)C3=O)CC1`
22000
